Where do the numbers come from? From patent US8871753B2.

# tested-on: Recombinant Human Anaplastic Lymphoma Kinase (Homo sapiens, UniProt Q9UM73)
# Construct: purchased Invitrogen, Carlsbad, Calif
# Sequence (Q9UM73 19-1620): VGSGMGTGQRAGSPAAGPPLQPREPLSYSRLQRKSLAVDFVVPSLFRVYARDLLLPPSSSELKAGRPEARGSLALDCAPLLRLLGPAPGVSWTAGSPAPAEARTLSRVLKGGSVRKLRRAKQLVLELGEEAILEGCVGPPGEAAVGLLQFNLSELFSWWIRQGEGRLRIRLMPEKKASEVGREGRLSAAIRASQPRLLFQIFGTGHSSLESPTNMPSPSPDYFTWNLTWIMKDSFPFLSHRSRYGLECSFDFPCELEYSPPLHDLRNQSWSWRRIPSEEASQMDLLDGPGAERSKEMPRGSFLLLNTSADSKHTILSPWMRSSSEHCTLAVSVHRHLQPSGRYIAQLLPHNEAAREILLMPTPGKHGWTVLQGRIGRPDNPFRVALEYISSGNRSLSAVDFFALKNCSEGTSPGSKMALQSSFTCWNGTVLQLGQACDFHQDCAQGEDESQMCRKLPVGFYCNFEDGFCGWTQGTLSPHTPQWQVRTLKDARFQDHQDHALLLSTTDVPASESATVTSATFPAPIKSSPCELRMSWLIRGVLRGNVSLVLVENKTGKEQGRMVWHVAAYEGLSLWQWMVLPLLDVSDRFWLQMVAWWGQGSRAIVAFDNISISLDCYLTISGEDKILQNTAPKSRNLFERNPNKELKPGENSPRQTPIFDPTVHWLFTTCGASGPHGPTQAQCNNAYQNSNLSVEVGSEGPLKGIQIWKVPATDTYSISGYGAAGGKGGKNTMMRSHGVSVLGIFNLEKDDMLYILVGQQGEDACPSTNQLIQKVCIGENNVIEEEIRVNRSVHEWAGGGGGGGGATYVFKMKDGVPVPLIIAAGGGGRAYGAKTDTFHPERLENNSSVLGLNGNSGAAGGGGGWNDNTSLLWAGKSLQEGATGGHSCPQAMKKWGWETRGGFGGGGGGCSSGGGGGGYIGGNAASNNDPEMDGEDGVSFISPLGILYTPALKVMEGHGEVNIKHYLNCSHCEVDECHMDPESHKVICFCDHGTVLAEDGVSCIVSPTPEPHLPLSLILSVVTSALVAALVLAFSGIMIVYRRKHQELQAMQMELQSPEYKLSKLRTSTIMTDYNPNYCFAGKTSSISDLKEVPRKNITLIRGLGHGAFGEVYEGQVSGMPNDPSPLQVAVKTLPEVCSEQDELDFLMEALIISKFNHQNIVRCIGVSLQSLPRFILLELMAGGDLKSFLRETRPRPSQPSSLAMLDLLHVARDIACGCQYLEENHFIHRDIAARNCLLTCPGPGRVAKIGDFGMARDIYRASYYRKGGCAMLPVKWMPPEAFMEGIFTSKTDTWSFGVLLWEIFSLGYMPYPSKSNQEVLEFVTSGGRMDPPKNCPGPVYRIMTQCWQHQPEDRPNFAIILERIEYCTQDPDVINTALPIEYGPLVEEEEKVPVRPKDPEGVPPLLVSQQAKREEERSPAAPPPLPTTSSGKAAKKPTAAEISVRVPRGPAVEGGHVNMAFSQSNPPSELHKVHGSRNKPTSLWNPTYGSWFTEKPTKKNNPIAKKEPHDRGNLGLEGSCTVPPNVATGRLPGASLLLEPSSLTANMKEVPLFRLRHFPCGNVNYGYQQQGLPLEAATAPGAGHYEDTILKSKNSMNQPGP
# test-name: ALK HTRF kinase assay
# Assay type: biochemical
# condition-parameters: Table D1; 90 μM ATP
Structures can show the parent of a compound that is named as a salt.
Known IC50 of a selection of compounds
quantity-measured: IC50 (nM)

>>> recorded_measurement("O=C(Nc1nccs1)c1cc2cc(c1)OCCSc1cccc(c1)Nc1nc(ncc1Cl)N2 [Example D54, trifluoroacetate]")
1220
>>> recorded_measurement("O=C(Nc1cc2cc(c1)OCCSc1cccc(c1)Nc1nc(ncc1Cl)N2)c1ccno1 [Example D59, trifluoroacetate]")
200
>>> recorded_measurement("Clc1cnc2nc1Nc1cccc(c1)OCCc1cc(cc(-c3ccccc3)c1)N2 [Example D28, trifluoroacetate]")
525
>>> recorded_measurement("O=S1(=O)CCOc2cccc(c2)Nc2ncc(Cl)c(n2)Nc2cccc1c2 [Example D14, trifluoroacetate]")
732
>>> recorded_measurement("O=S(=O)(Nc1cc2cc(c1)OCCSc1cccc(c1)Nc1nc(ncc1Cl)N2)c1ccccc1 [Example D68, trifluoroacetate]")
340

---

# tested-on: human JAK1 (a.a. 837-1142) (Homo sapiens, UniProt P23458)
# Construct: human JAK1 (a.a. 837-1142); His tag (N); made in house; host or cells: insect cells (baculovirus)
# Sequence (P23458 849-1154): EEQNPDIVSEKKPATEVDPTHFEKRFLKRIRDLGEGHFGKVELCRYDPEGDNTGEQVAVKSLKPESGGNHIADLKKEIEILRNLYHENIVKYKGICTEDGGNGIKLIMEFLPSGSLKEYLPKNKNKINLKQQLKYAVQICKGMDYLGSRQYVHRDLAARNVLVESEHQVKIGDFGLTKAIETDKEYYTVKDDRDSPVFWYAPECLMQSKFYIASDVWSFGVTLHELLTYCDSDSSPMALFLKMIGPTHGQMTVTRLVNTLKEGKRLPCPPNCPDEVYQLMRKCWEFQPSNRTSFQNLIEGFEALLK
# test-name: In vitro JAK kinase assay (HTRF, phosphorylation of a biotinylated peptide), JAK1
# Format: biochemical
# condition-parameters: Table B1; read-out: JAK1 IC50
Structures can show the parent of a compound that is named as a salt.
quantity-measured: IC50 (nM)

>>> recorded_measurement("O=C(Nc1ccc2cc1CCc1cncc(c1)Nc1ncc(Cl)c(n1)N2)N[C@H]1CCN(C(=O)c2ccccc2)C1 [Example B227, bis(trifluoroacetate)]")
1
>>> recorded_measurement("Clc1cnc2nc1Nc1ccc(CN[C@@H]3CCNC3)c(c1)CCc1cccc(c1)N2 [Example B222, tris(trifluoroacetate)]")
20
>>> recorded_measurement("O=C(NCCN1CCNCC1)Nc1ccc2cc1CCc1cccc(c1)Nc1ncc(Cl)c(n1)N2 [Example B260, trihydrochloride]")
4.7
>>> recorded_measurement("O=C(NO)Nc1ccc2cc1CCc1cccc(c1)Nc1ncc(Cl)c(n1)N2 [Example B324, trifluoroacetate]")
20
>>> recorded_measurement("O=C(NCCN1CCCC1)Nc1ccc2cc1CCc1cccc(c1)Nc1ncc(Cl)c(n1)N2 [Example B255, bis(trifluoroacetate)]")
5.5
>>> recorded_measurement("O=C(Nc1ccc2cc1CCc1cccc(c1)Nc1ncc(Cl)c(n1)N2)Nc1ccccc1OC(F)(F)F [Example B131, trifluoroacetate]")
7.3
>>> recorded_measurement("COCCNC(=O)Nc1ccc2cc1CCc1cccc(c1)Nc1ncc(Cl)c(n1)N2 [Example B243, trifluoroacetate]")
0.92
>>> recorded_measurement("O=C(Nc1ccc2cc1CCc1cccc(c1)Nc1ncc(Cl)c(n1)N2)N[C@@H]1CCNC1 [Example B175, dihydrochloride]")
9
>>> recorded_measurement("O=C(Nc1ccc(N2CCOCC2)cc1)c1cc2cc(c1)Nc1nc(ncc1Cl)Nc1cccc(c1)CC2 [Example B9, trifluoroacetate]")
263
>>> recorded_measurement("O=C(Nc1ccc2cc1CCc1cccc(c1)Nc1ncc(Cl)c(n1)N2)c1ccc(C(F)(F)F)nc1 [Example B77, bis(trifluoroacetate)]")
0.84
>>> recorded_measurement("O=C(Nc1ccc2cc1CCc1cccc(c1)Nc1ncc(Cl)c(n1)N2)c1ccccc1 [Example B29, trifluoroacetate]")
0.24
>>> recorded_measurement("Cn1cncc1C(=O)Nc1ccc2cc1CCc1cccc(c1)Nc1ncc(Cl)c(n1)N2 [Example B51, bis(trifluoroacetate)]")
2.7
>>> recorded_measurement("CC(C)C(=O)N1CC[C@H](NC(=O)Nc2ccc3cc2CCc2cccc(c2)Nc2ncc(Cl)c(n2)N3)C1 [Example B229, trifluoroacetate]")
9

---

Known IC50 of a selection of compounds
# tested-on: human JAK2 (a.a. 828-1132) (Homo sapiens, UniProt O60674)
# Construct: JAK2 (a.a. 828-1132); His tag (N); made in house; host or cells: insect cells (baculovirus)
# Sequence (O60674 828-1132): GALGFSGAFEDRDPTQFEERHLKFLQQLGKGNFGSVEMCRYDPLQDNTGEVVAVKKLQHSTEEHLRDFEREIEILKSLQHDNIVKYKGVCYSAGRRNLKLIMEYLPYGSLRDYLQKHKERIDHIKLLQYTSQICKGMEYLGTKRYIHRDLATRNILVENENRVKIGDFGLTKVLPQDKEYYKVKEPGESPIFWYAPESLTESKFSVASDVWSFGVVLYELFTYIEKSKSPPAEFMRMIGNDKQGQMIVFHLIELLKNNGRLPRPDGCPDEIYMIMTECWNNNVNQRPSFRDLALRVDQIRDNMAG
# test-name: In vitro JAK kinase assay (HTRF, phosphorylation of a biotinylated peptide), JAK2
# Type: biochemical
# condition-parameters: method AA1 (30 μM ATP) or AA2 (1000 μM ATP), not stated per value
Structures can show the parent of a compound that is named as a salt.
quantity-measured: IC50 (nM)

>>> recorded_measurement("Oc1ccc2cc1Nc1nc(ncc1Cl)Nc1cccc(c1)CC2 [Example A26, trifluoroacetate]")
11
>>> recorded_measurement("O=C(CN1CCN(c2nc3cccnc3o2)CC1)Nc1ccc2cc1CCc1cncc(c1)Nc1ncc(Cl)c(n1)N2 [Example A118, tris(trifluoroacetate)]")
16
>>> recorded_measurement("Cc1ccc(C#N)c(N2CCC(CC(=O)Nc3ccc4cc3CCc3cncc(c3)Nc3ncc(Cl)c(n3)N4)CC2)n1 [Example A238, tris(trifluoroacetate)]")
244

---

Known IC50 of a selection of molecules
# tested-on: human JAK1 (a.a. 837-1142) (Homo sapiens, UniProt P23458)
# Construct: human JAK1 (a.a. 837-1142); His tag (N); made in house; host or cells: insect cells (baculovirus)
# test-name: In vitro JAK kinase assay (HTRF, phosphorylation of a biotinylated peptide), JAK1
# Format: biochemical
# condition-parameters: Table D1; read-out: JAK1 IC50
Where a name gives a salt, the structure may show the parent alone.
quantity-measured: IC50 (nM)

>>> recorded_measurement("Cc1noc(C)c1NC(=O)N1CCC(CCOc2ccc3cc2CCc2cncc(c2)Nc2ncc(Cl)c(n2)N3)CC1 [Example D171, bis(trifluoroacetate)]")
117
>>> recorded_measurement("O=C(NCc1ccccc1)c1cc2cc(c1)OCCSc1cccc(c1)Nc1nc(ncc1Cl)N2 [Example D51, trifluoroacetate]")
1.8
>>> recorded_measurement("O=C(C[C@@H]1CCN(C(=O)Nc2ccc(F)cc2)C1)Nc1ccc2cc1CCc1cncc(c1)Nc1ncc(Cl)c(n1)N2 [Example D118, bis(trifluoroacetate)]")
12
>>> recorded_measurement("CC(=O)N1CCN(c2cc(-c3cc4cc(c3)Nc3ncc(Cl)c(n3)Nc3cccc(c3)OCC4)ccn2)CC1 [Example D35, bis(trifluoroacetate)]")
0.7
>>> recorded_measurement("Clc1cnc2nc1Nc1ccc(N3CCNCC3)c(c1)CCc1cccc(c1)N2 [Example D83, bis(trifluoroacetate)]")
126
>>> recorded_measurement("Cn1cncc1C(=O)N1CC[C@@H](CC(=O)Nc2ccc3cc2CCc2cncc(c2)Nc2ncc(Cl)c(n2)N3)C1 [Example D126, tris(trifluoroacetate)]")
98
>>> recorded_measurement("O=C(C[C@H]1CCN(C(=O)Nc2cccc(F)c2)C1)Nc1ccc2cc1CCc1cncc(c1)Nc1ncc(Cl)c(n1)N2 [Example D103, bis(trifluoroacetate)]")
6.7
>>> recorded_measurement("O=C(C[C@@H]1CCN(C(=O)c2c[nH]nn2)C1)Nc1ccc2cc1CCc1cncc(c1)Nc1ncc(Cl)c(n1)N2 [Example D132, bis(trifluoroacetate)]")
3.2
>>> recorded_measurement("O=C(C[C@H]1CCN(C(=O)c2cn[nH]c2)C1)Nc1ccc2cc1CCc1cncc(c1)Nc1ncc(Cl)c(n1)N2 [Example D129-b, bis(trifluoroacetate)]")
33
>>> recorded_measurement("O=C(C[C@H]1CCN(C(=O)c2nc[nH]n2)C1)Nc1ccc2cc1CCc1cncc(c1)Nc1ncc(Cl)c(n1)N2 [Example D128, bis(trifluoroacetate)]")
21
>>> recorded_measurement("N#Cc1ccccc1S(=O)(=O)N1CCC(CCNc2ccc3cc2CCc2cncc(c2)Nc2ncc(Cl)c(n2)N3)CC1 [Example D222, tris(trifluoroacetate)]")
21
>>> recorded_measurement("O=S1(=O)CCc2cccc(c2)Nc2ncc(Cl)c(n2)Nc2cccc1c2 [Example D24, trifluoroacetate]")
5

---

# tested-on: human JAK1 (a.a. 837-1142) (Homo sapiens)
# Construct: human JAK1 (a.a. 837-1142); His tag (N); made in house; host or cells: insect cells (baculovirus)
# test-name: In vitro JAK kinase assay (HTRF, phosphorylation of a biotinylated peptide), JAK1
# Assay type: biochemical
# condition-parameters: read-out: JAK1 IC50
pIC50: −log10 of the molar value. Counter-ions that a name gives are not always drawn.
Known pIC50 of a selection of compounds
quantity-measured: pIC50

>>> recorded_measurement("O=C(Cc1nnn[nH]1)Nc1ccc2cc1CCc1cccc(c1)Nc1ncc(Cl)c(n1)N2 [Example C31, trifluoroacetate]")
6.85
>>> recorded_measurement("CCCC(=O)N1Cc2cccc(c2)Nc2ncc(Cl)c(n2)Nc2cccc1c2 [Example C26]")
6.64
>>> recorded_measurement("Cc1cc(C(=O)N2CCC(CC(=O)Nc3ccc4cc3CCc3cncc(c3)Nc3ncc(F)c(n3)N4)CC2)no1 [Example C49, trifluoroacetate]")
7.30

---

# tested-on: TYK2 (Homo sapiens, UniProt P29597)
# Sequence (P29597 whole entry): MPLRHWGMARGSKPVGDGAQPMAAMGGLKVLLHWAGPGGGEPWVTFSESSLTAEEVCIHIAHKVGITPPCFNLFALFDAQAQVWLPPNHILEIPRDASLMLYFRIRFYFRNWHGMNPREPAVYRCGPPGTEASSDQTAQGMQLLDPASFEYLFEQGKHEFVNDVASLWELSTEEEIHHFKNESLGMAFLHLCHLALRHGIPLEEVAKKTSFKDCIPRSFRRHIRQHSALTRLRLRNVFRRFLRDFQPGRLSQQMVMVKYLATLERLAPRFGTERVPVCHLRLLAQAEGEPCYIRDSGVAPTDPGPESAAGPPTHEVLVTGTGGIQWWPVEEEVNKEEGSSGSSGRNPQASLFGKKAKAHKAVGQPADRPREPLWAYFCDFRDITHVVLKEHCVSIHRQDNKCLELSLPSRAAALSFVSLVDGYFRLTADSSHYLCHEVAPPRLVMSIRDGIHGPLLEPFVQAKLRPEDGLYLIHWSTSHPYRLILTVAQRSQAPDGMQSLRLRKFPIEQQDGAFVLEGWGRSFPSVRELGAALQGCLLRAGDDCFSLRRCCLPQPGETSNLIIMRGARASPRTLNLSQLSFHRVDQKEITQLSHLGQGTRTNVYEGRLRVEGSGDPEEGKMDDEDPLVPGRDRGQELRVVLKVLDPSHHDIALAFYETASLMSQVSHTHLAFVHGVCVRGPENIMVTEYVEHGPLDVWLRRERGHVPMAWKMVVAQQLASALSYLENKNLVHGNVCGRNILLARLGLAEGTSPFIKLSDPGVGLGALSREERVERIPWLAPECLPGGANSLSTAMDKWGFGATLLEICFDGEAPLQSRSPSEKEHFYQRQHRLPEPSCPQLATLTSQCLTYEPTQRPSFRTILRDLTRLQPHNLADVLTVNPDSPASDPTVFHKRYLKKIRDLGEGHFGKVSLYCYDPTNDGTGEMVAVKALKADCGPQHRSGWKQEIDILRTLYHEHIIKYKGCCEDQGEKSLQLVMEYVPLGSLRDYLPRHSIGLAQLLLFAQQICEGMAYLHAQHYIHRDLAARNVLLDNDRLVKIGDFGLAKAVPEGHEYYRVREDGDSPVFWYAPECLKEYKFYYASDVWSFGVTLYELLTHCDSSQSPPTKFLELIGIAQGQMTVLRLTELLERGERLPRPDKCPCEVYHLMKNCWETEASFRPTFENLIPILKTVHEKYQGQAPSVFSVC
# test-name: TYK2 kinase inhibition (Table A1)
# Assay type: biochemical
Counter-ions that a name gives are not always drawn.
quantity-measured: IC50

>>> recorded_measurement("Cc1cc(C(=O)N2CCC(CC(=O)Nc3ccc4cc3CCc3cncc(c3)Nc3ncc(C)c(n3)N4)CC2)no1 [Example C51, bis(trifluoroacetate)]")
"0.1 µM"
>>> recorded_measurement("Cc1nc(CC(=O)Nc2ccc3cc2CCc2cccc(c2)Nc2ncc(Cl)c(n2)N3)cs1 [Example C38, trifluoroacetate]")
"0.039 µM"
>>> recorded_measurement("N[C@@H](CO)C(=O)Nc1ccc2cc1CCc1cccc(c1)Nc1ncc(Cl)c(n1)N2 [Example A109, bis(trifluoroacetate)]")
"0.0075 µM"
>>> recorded_measurement("O=C(CC1CCN(C(=O)Nc2ccccc2)CC1)Nc1ccc2cc1CCc1cccc(c1)Nc1ncc(Cl)c(n1)N2 [Example A58, trifluoroacetate]")
"0.0099 µM"
>>> recorded_measurement("Cc1cnc2nc1Nc1ccc(N)c(c1)CCc1cncc(c1)N2 [Example C50, tris(trifluoroacetate)]")
"0.08 µM"
>>> recorded_measurement("Cn1ccc2c(NC(=O)N3CCN(C(=O)COc4ccc5cc4CCc4cccc(c4)Nc4ncc(Cl)c(n4)N5)CC3)cccc21 [Example A11, trifluoroacetate]")
"0.0095 µM"
>>> recorded_measurement("CCC(=O)N1CCC(CC(=O)Nc2ccc3cc2CCc2cccc(c2)Nc2ncc(Cl)c(n2)N3)CC1 [Example A90, trifluoroacetate]")
"0.0049 µM"
>>> recorded_measurement("O=C1NCc2cccc(c2)Nc2ncc(Cl)c(n2)Nc2cccc1c2")
"> 1 µM"
>>> recorded_measurement("O=C(CC1CCN(C(=O)c2ccc(F)cc2)CC1)Nc1ccc2cc1CCc1cccc(c1)Nc1ncc(Cl)c(n1)N2 [Example A203, trifluoroacetate]")
"> 0.2 µM"
>>> recorded_measurement("CCNC(=O)N1CC[C@@H](C(=O)Nc2ccc3cc2CCc2cccc(c2)Nc2ncc(Cl)c(n2)N3)C1 [Example A53, trifluoroacetate]")
"0.014 µM"
>>> recorded_measurement("O=C(CC1CCN(C(=O)c2nccs2)CC1)Nc1ccc2cc1CCc1cncc(c1)Nc1ncc(Cl)c(n1)N2 [Example A133, bis(trifluoroacetate)]")
"0.0055 µM"
>>> recorded_measurement("O=C1Nc2cccc(c2)Nc2ncc(Cl)c(n2)Nc2cccc1c2 [Example C1, hydrochloride]")
"> 1 µM"
>>> recorded_measurement("CC(=O)N1CCN(C(=O)COc2ccc3cc2CCc2cccc(c2)Nc2ncc(Cl)c(n2)N3)CC1 [Example A20, trifluoroacetate]")
"0.027 µM"
